- Protocol Details: qHTS Assay for Identifying the Cell-Membrane Permeable IMPase Inhibitors: Potentiation with Lithium;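 also: IP1 builds up when IMPase is blocked and the TR-FRET signal falls; nearly all actives have a fitted effect of over 50% in size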
- Run Parameters: CHO-M1 cells, IP1 TR-FRET (IP-One), carbachol + lithium; series mostly up to 59.4 µM
About 730 (0.35%) of roughly 210,000 compounds were called active. Not shown: some 1% with an inconclusive outcome. For the sample, actives were picked, then their nearest neighbours and some compounds at random.
Experimental Readout: outcome

See these solved cases before continuing.
{"Chemical Smiles": "COC(=O)C1=C(C(=O)OC)[C@@H]2N(Cc3ccccc3)c3ccccc3[C@@]23C[C@@H](C(=O)OC)N(S(=O)(=O)c2ccc(C(F)(F)F)cc2)C3=N1", "Experimental Readout": "outcome", "Experimental Result": "inactive"}
{"Chemical Smiles": "COC(=O)C/C=C/[C@@H](C)[C@H](NC(=O)OCC(Cl)(Cl)Cl)c1ccccc1", "Experimental Readout": "outcome", "Experimental Result": "inactive"}
{"Chemical Smiles": "CC(C)c1cnc(NC(=O)Cc2ccccc2)s1", "Experimental Readout": "outcome", "Experimental Result": "inactive"}
{"Chemical Smiles": "O=C1c2cccc3cccc(c23)C(=O)N1CCCCCc1n[nH]c(=S)o1", "Experimental Readout": "outcome", "Experimental Result": "inactive"}
{"Chemical Smiles": "COc1cccc([C@@H]2Oc3ccc(Br)cc3C(=O)[C@H]2OC(=O)NCCc2ccc(OC)c(OC)c2)c1", "Experimental Readout": "outcome", "Experimental Result": "inactive"}
{"Chemical Smiles": "O=C(O)C[C@@H]1NC(=O)[C@H](Cc2ccccc2)NC1=O", "Experimental Readout": "outcome", "Experimental Result": "inactive"}
{"Chemical Smiles": "O=C(CN1C(=O)c2cccc3cccc(c23)C1=O)N1CCCCC1", "Experimental Readout": "outcome", "Experimental Result": "inactive"}
{"Chemical Smiles": "COC(=O)C1=C(C(=O)OC)[C@@H]2N(C)c3ccccc3[C@@]23C[C@@H](C(=O)OC)N(S(=O)(=O)c2cccs2)C3=N1", "Experimental Readout": "outcome", "Experimental Result": "inactive"}

## Task Entry O=C(c1ccco1)N1CCC2(CC1)CCN(c1ncccn1)CC2 has what outcome?
## Result inactive

## Task Entry to check: CC[C@@]12C=C(/C=C/c3ccccc3)[C@](CC)(C1)[C@H](c1ccccc1)CC2=O
## Result inactive

###

- Protocol Details: qHTS Assay for Identifying the Cell-Membrane Permeable IMPase Inhibitors: Potentiation with Lithium;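 also: IP1 builds up when IMPase is blocked and the TR-FRET signal falls; nearly all actives have a fitted effect of over 50% in size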
- Run Parameters: CHO-M1 cells, IP1 TR-FRET (IP-One), carbachol + lithium; series mostly up to 59.4 µM
Hit rate of the full screen: of about 210,000 compounds, about 730 (0.35%) were called active. Inconclusive results (about 1%) are left out. Calls come from the whole dose curve; as a rule, active = well fitted inhibition curve with a large enough effect; inconclusive = small, poorly fitted or top-dose-only effect; inactive = no such curve, though single readings can be large or run the other way. Many of the other results were omitted from the sample, so actives are more common in it than they were.
Select the correct class. Options are t (active), f (inactive) and nothing else.

## Task Entry NNc1nnc(NN)c2ccccc12 : call = ?
## Result f

## Task What would you report for N#C/C(=C(/O)COc1cccc2ccccc12)c1nc2ccccc2[nH]1 ?
## Result f

## Task Moving on to C=C/C1=C/Cc2ccccc2[C@H](C[N+](=O)[O-])C(C(=O)OC)(C(=O)OC)C1
## Result f

## Task Can you handle COC1(C2=NCCN2)COc2ccccc2O1 (stereo unspecified) next?
## Result f

## Task Input Nc1c(C(=O)NCc2ccccc2)sc2nc3c(cc12)C(=O)CCC3
## Result f

## Task Try CC(C)(C)OC(=O)NCCCCC1=CC2=CC(=O)C(C)(OC(=O)c3cccs3)C(=O)C2=CO1 (stereo unspecified) next.
## Result f

## Task Thanks! And CCCC(=O)n1nc(-c2ccccc2)nc1N ?
## Result f

## Task Try this compound too: CCN(CC)C(=O)c1sc2nc(-c3ccccc3)ccc2c1N
## Result t

## Task Here is the next compound: O=C(O)COc1ccc(-c2nccc(-c3cccs3)n2)cc1
## Result t

## Task Also check COc1ccc(-c2nc3c(c4c2C[C@H](c2ccccc2)OC4)CN(C(=O)c2ccco2)CC3)c(C)c1
## Result f

## Task Would you kindly repeat that for COC(=O)CSc1nccc(-c2cccs2)n1 ?
## Result f
